# Assay system: T1, T2 mechanosensitive channel from Thermoplasma volcanium, tag free (Thermoplasma volcanium)
# T1 construct: TVN0821, gene amplified from genomic DNA (DSM 4299 [GSS1*]); 297 amino acids per monomer; Cloned into pNIC28-Bsa4 (TEV site) and pET46 (Enterokinase site); In detergent (0.03 % DDM); also called T2 channel; tag free T2-channel; source: E. coli C43(DE3), purified (DDM solubilised, IMAC, tag cleavage, second IMAC, gel filtration); not shown: His-tag, N-terminal, cleaved
# T1 chain: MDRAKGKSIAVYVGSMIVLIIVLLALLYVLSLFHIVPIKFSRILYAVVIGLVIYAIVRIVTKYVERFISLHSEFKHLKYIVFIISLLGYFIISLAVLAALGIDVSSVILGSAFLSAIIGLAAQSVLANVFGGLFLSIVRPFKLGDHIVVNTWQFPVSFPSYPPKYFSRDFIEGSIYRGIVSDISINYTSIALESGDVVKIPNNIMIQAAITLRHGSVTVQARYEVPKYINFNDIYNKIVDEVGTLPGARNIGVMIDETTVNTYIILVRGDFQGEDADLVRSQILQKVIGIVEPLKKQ
# Measurement notes: SPR; BIAcore 3000, 25 °C, 20 mM sodium phosphate pH 7.4, 150 mM NaCl, 0.03 % DDM; T2 channel amine-coupled on CM5 (1500 - 2000 RU); nanobodies 0.35 - 86.1 nM injected in triplicates; global fit to a simple bimolecular model, KD = kd/ka
# Reported conditions: both partners purified
Readout type: kon (M⁻¹ s⁻¹)

[[record]]
binder = "nanobody 2 (VHH, pHEN6 vector; also called Nb 2; CA-number 3381; source: E. coli WK6 periplasm, purified (IMAC, gel filtration); not shown: His-tag, C-terminal, kept) VHH: QVQLQESGGGLVQAGGSLRLSCAASGGTFRTGGMAWFRQAPGKAREFAAGISWSGGSTDYGDSVKGRFTISRDNAKNTVYLQMNSLKPEDTAVYYCAASRRFRSGVLTRADDVDYWGKGTQVTVSS"
readout_type = "kon"
observed_result = "1.31e+06"

[[record]]
binder = "nanobody 22 (VHH, pHEN6 vector; also called Nb 22; CA-number 3406; source: E. coli WK6 periplasm, purified (IMAC, gel filtration); not shown: His-tag, C-terminal, kept) VHH: QVQLQESGGGLVQAGGSLRLSCAASGGTFKSGGMAWFRQAPGKAREFAAGISWSGGSTDYEDSVKGRFTISRDNAKNTMYLQMNSLKPEDTAVYYCAAARRFRAGVVTRADDVDYWGKGTQVTVSS"
readout_type = "kon"
observed_result = 240000

[[record]]
binder = "nanobody 8 (VHH, pHEN6 vector; also called Nb 8; CA-number 3389; source: E. coli WK6 periplasm, purified (IMAC, gel filtration); not shown: His-tag, C-terminal, kept) VHH: QVQLQESGGGLVQPGGSLRLSCAASGSPFSFGAMGWYRQAPGKQRELAAIITNAGSTMYADSVKGRFTVSRVNAKNTVSLQMNNLKPEDTAVYYCYAQTAPVADVTWGQGTQVTVSS"
readout_type = "kon"
observed_result = "1.56e+06"

[[record]]
binder = "nanobody 4 (VHH, pHEN6 vector; also called Nb 4; CA-number 3383; source: E. coli WK6 periplasm, purified (IMAC, gel filtration); not shown: His-tag, C-terminal, kept) VHH: QVQLQESGGGLVQPGGSLRLSCAASGSIFSMNSMDWYRQAPGKQRELVATITSGGSTNYADSVKGRFTISRDNAWNTVTLQMNSLKPEDTAVYYCHAVLSTRGGYWGQGTQVTVSS"
readout_type = "kon"
observed_result = 620000

